system: MMP-13; assay: MMP-13 production inhibition test; format: cell-based; details: 30 μmol/L; human cartilage derived cell line SW1353, IL-1β 10 ng/mL, 16 hours after stimulation, MMP-13 in culture supernatant by ELISA; read-out: Inhibition rate (%) at 30 μmol/L
Measurement name: inhibition at 30 µM
Answer format: value, then unit.

Problem: Supply recorded inhibition at 30 µM for Cc1ccccc1Nc1cc(-c2cccc(O)c2)ccc1C(=O)O here.
Solution: 90%

Problem: Supply recorded inhibition at 30 µM for O=C(O)c1ccc(CCCc2ccccc2)cc1Nc1ccc(F)cc1 here.
Solution: 97%

Problem: Supply recorded inhibition at 30 µM for CS(=O)(=O)Nc1ccc(-c2ccc(C(=O)O)c(Nc3ccc(F)cc3)c2)cc1 here.
Solution: 75%

Problem: Supply recorded inhibition at 30 µM for O=C(O)c1ccc(-c2ccccc2)cc1Nc1ccccc1Cl here.
Solution: 98%

Problem: Supply recorded inhibition at 30 µM for O=C(O)c1ccc(-c2ccc(OC(F)(F)F)cc2)cc1Nc1ccc(F)cc1 here.
Solution: 98%

Problem: Supply recorded inhibition at 30 µM for COc1ccc(-c2ccc(C(=O)O)c(Nc3ccc(F)cc3)c2)cc1OC here.
Solution: 82%

Problem: Supply recorded inhibition at 30 µM for O=C(O)c1ccc(Oc2ccccc2)cc1NC1CCCCC1 here.
Solution: 85%

Problem: Supply recorded inhibition at 30 µM for COc1ccc(Nc2cc(-c3ccccc3)ccc2C(=O)O)cc1 here.
Solution: 79%

Problem: Supply recorded inhibition at 30 µM for O=C(O)c1ccc(-c2ccc3occc3c2)cc1Nc1ccc(F)cc1 here.
Solution: 98%

* * *

tested on: MMP-13; assay: MMP-13 production inhibition test; format: cell-based; conditions: 30 μmol/L; human cartilage derived cell line SW1353, IL-1β 10 ng/mL, 16 hours after stimulation, MMP-13 in culture supernatant by ELISA; read-out: Inhibition rate (%) at 30 μmol/L
Please provide measured inhibition at 30 µM for the entries that follow.
Could you give me the number in %? Just the number is fine.

Problem: Supply recorded inhibition at 30 µM for O=C(O)c1ccc(CCc2ccccc2)cc1Nc1cc(-c2ccccc2)n[nH]1 here.
Solution: 96

Problem: Supply recorded inhibition at 30 µM for O=C(O)c1ccc(NC(=O)c2csc3ccccc23)cc1Nc1ccc(F)cc1 here.
Solution: 97

Problem: Supply recorded inhibition at 30 µM for Cc1ccc(CCc2ccc(C(=O)O)c(Nc3ccc(F)cc3)c2)cc1 here.
Solution: 96

Problem: Supply recorded inhibition at 30 µM for O=C(O)c1ccc(/C=C/c2ccc3c(c2)OCO3)cc1Nc1ccc(F)cc1 here.
Solution: 93

Problem: Supply recorded inhibition at 30 µM for O=C(O)c1ccc(-c2ccc3[nH]ccc3c2)cc1Nc1ccc(F)cc1 here.
Solution: 95

Problem: Supply recorded inhibition at 30 µM for O=C(O)c1ccc(-c2ccccc2)cc1Nc1cccc(OC(F)(F)F)c1 here.
Solution: 97

Problem: Supply recorded inhibition at 30 µM for O=C(O)c1ccc(CCc2ccccc2)cc1Nc1cccc(-n2cccn2)c1 here.
Solution: 97

Problem: Supply recorded inhibition at 30 µM for COc1ccc(CCc2ccc(C(=O)O)c(Nc3ccc(F)cc3)c2)cc1 here.
Solution: 93
